# assay: Displacement of [125I]IMPY from amyloid beta (1-42) after 3 hrs by gamma counting
measured.endpoint: pKi
Lab note — pKi values are minus log10 of concentrations in M.

INPUT: // lookup pKi for CC1=CC(C)=[N+]2C1=Cc1ccc(/C=C/c3ccc(-c4ccc(I)cc4)s3)n1[B-]2(F)F
OUTPUT: 6.97
